biological target: NUDT15 (Homo sapiens); construct: full-length wild-type; experiment: […] Å co-crystal structure; also enzyme-coupled malachite green inhibition assay and DSF; type: biochemical
PROPERTY: IC50 (nM)
Give your result in nM as a bare value.

IN: Requested read-out IC50, target or system NUDT15 (Homo sapiens), entry Nc1nc(S)c2ncn(C3CCCCC3)c2n1
OUT: 383

====

Target: NUDT15 (Homo sapiens, UniProt Q9NV35)
Construct: full-length wild-type
Sequence (Q9NV35 1-164): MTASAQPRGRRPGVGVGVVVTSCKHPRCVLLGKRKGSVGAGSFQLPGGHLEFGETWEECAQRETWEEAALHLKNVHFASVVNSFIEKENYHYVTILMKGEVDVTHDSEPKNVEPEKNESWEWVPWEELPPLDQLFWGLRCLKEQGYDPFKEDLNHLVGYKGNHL
Assay: enzyme-coupled malachite green assay with dGTP as substrate
Assay type: biochemical
PROPERTY: IC50 (nM)
Give your result in nM as a bare value.

IN: I would be grateful if you could share the reported IC50 for CC(C)(c1ccccc1)n1cnc2c(=S)nc(N)[nH]c21 .
OUT: 375
